assayDetails: soluble fraction after stress (log2 fold change); higher = more stays soluble; pooled small domains, quantitative proteomics;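 note: 20 min heating vs room temperature control held 20 min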
conditionsUsed: stress: 75 degC
Exercise: for every item that follows, state its recorded soluble fraction (log2).

sequencechain=HMAAQLAHVPAVTGRPLAEAQRILADNRLNAQVTQQPVAEPKLDGVVIAQKITEGTRTMRGATVPLIVGKY reading=-0.00421
sequencechain=HMKFKDYYAALGIDRNADLEQIKKAYRKLARQYHPDVSKAPDAEARFKDAAEAYATLKNPEKRAAYDELGS reading=0.0895
sequencechain=HMGTHSAEQVRAAIRAIVAAEDAANPLSDARITELLAMRGIAAARRTVMKYREQLGIPSSAKRRR reading=-1.94

Could you report soluble fraction (log2) for every entry in the following list?
1. HMDRSIGDIIAELRDLSAEQVERVLAHQRETGVRFGEAAVALGYASKEDVLFALSQQFHYPYAPEE
2. HMEMLQENIRNLRKAKGWSQEELAIKLNVVRQTVSKWEKGLSVPDSQMLIRIADELDTTVAILLG
3. HMELNELTSRELMVAEQVARGASNREISEALSISERTVKAHLSAAFEKLGVRDRVQLALAMNNIPT
4. HMRDANYFINPIHEWQKRYEALRASFVDRLPAQAVAQRFGYTITYIHLLRHQFKSGKIDFSEPVPEG
5. HMFVTFFHELKSAGVPVSLREYLTLMEAMDRDLASRRVEEFYYLARTALVKDERNLDKFDRVFGHVFKGL

0.0114
-0.705
-0.106
-4.19
-4.08

----------
Exercise: for every item that follows, state its recorded soluble fraction (log2).
assayDetails: soluble fraction after stress (log2 fold change); higher = more stays soluble; pooled small domains, quantitative proteomics
conditionsUsed: stress: 75 degC
Give bare numbers.

Past entries and their recorded results:
sequencechain=HMREKLKEYVHLLFAGTVGKEDMEQEILQNTLDRFDDWVARGFSEEDAYRKAVSGIGDIDALLG valuekind="soluble fraction (log2)" reading=-0.0221
sequencechain=HMYEENFSKIKNDISTIFKRHKISFTNNFISHLSSVFNTDSLTNKMELEKLDSFLINNKKVTENELLKFII valuekind="soluble fraction (log2)" reading=-0.0789
sequencechain=HMALHDTLSYEEYLDLGLNGKADSAEKRELVAHALHLGRPNAKTLYKRLNMLQLNRKDVAALLEQ valuekind="soluble fraction (log2)" reading=0.097

Could you report soluble fraction (log2) for every entry in the following list?
1. HMTDVRFISIPIQKEHPWNRKLVSELNLPPGTLLVFLRRTGENIVPNGKTMIQEGDVLVLGASAYR
2. HMFPATAPQLKAVHAILGKQGISDELDKLARVNEWLVGLNKEPVAAISELDKHTTSGLIDHLQGELNE
3. HMAQNILPGQKNAIKSLATSAGFSQQELDSYLSQNYGKTLNNLSQKEGASLISGLQDGSIKKP
4. HMISLPSYIREEATEVYNRLHDLGLEYTSLDVNDDSIPKGYVVRTVPEAGASVPAGQVVTVYVSLG

1: -1.31; 2: 0.297; 3: 0.988; 4: -0.829

----------
assayDetails: soluble fraction after stress (log2 fold change); higher = more stays soluble; pooled small domains, quantitative proteomics
conditionsUsed: stress: 75 degC
valueKind: soluble fraction (log2)
Answers are plain numbers.

Past entries and their recorded results:
sequencechain=HMASDLPTVTIMGKTFYTYVAKKGESFFGIANRFGWDPELLVKTNRELETPLDKGALIYYPVPKKPK valuekind="soluble fraction (log2)" reading=-1.32
sequencechain=HMSVPRPSAVEVTSLVTGVRDLLPHLGEGYVERVLVEFGFKVDETINALLEGNLPKHLQDLDPSLTKEI valuekind="soluble fraction (log2)" reading=-1.24
sequencechain=HMAPRKNIRLLRAAQDKAAAEGDHETVDAIRGQIAALIETLPVQYREEYLLQEKGRENGLKLAIENAAK valuekind="soluble fraction (log2)" reading=0.663

From here, focus on the item given below.
Request the reported soluble fraction (log2) associated with HMKPTVKVPNVVNLSLRNAQIQLQNYGLEVGSISYESSRFKNAVLRQSISEGSVVEKGTTINLVISDGL
-1.56

----------
Exercise: for every item that follows, state its recorded soluble fraction (log2).
assayDetails: soluble fraction after stress (log2 fold change); higher = more stays soluble; pooled small domains, quantitative proteomics
conditionsUsed: stress: 75 degC

Past entries and their recorded results:
sequencechain=HMPATIEGIRLYLSSGLIKGVGEEMASRIVKAFGTDTIRVLDEEPERLLKVRGVGKKSLDRIRTSWAEH valuekind="soluble fraction (log2)" reading=-0.366
sequencechain=HMIHSEEIQDHIFVKQLGEVFLRNHINYENIMKSWDDHTNVIKRFRRYPHRNKILNRESTIDEISFLKE valuekind="soluble fraction (log2)" reading=0.176
sequencechain=HMHSRLEDIPGIGPRRRAMLLRHFGGLAELKAAGVEEIARVEGINMALAQRLWRALHGVPDPT valuekind="soluble fraction (log2)" reading=-0.641
sequencechain=HMSTRYVRTPAGQAEIQARVFKLSRPVRNLLLVINDSRSIDDWLVQVHGITADDVAMLRAEGLIAEVS valuekind="soluble fraction (log2)" reading=-3.06
sequencechain=HMEGLATRLRFLRQARGLSYHALARLSGVTHTALHQIEAGKNIPGLDTAEKIAMALDVDPRWFAYGRGDPS valuekind="soluble fraction (log2)" reading=-3.18
sequencechain=HMFTLNEIIGQKIRNARISAGLTLDELSKMTGISAAQLSSLETGYRRANIDTLYAIAKAIGIDVSNLLKY valuekind="soluble fraction (log2)" reading=-1.39
sequencechain=HMSMFSEILRTLRKAKGLTQRELAGHLGVTQQMVAKWEKGQSTPGPDQLTRMAELLEVSTDTLLGR valuekind="soluble fraction (log2)" reading=-0.366
sequencechain=HMSEIKDRLREARRNKGLSQAGLSKLLGVSQASIAAIESGRNKRPTNLVSIAKALDVSPYWLETGK valuekind="soluble fraction (log2)" reading=-0.229
sequencechain=HMYLPGERMRIKITALGSNPKQGVGYLPDGMMVVVDEAATLVGRFVEIEFVKFLQTNSGRMMFAKVAT valuekind="soluble fraction (log2)" reading=-1.96
sequencechain=HMTIPNGTVVNGTVLEAREAGAYLVRVAGQTLTAQANLPLLVGQHFRAVWDSSGDIPVLRLSDAEQALLGK valuekind="soluble fraction (log2)" reading=-0.362

Could you report soluble fraction (log2) for every entry in the following list?
1. HMEGGLIMDRIEKGLQSGVMPDLRGLNLKDALYLLESYVQVQVIGSGGVIKQSIKTGDKFIMGSVIKLEL
2. HMGQLVYPAGVYDVNKSYITDSNSAPYVLDKTDNNYYVLNTQMTWKGTEQDNKTPSQSYEESGGSVWLLFD
3. HMFYWTDLIGLDVINTADERLGKVVGLIETGANAVLRVMGDDQVERLLPFGSAVVLTVEKEAGQIRVEW

1. -0.138
2. -0.118
3. -2.11

Could you report soluble fraction (log2) for every entry in the following list?
1. HMELSAEGWVDGTGVRMRASASTDSEVVRVTEDGESLDITGVSGTWYRVTAGGVSGYIRSDYVSLEEP
2. HMSQEAKLAMPVTDLRLSARTLNALELANIRTVRDLVSHTEEQLLELRNFGETALAEVKEKLAALGLRLGM
3. HMLINIKTNSAVNVRSGPGMGFEVVNTYPSGYILQAKEMQKDGGDNVWYKVKDGWLSANYTIDI
4. HMSNLKKRRLEKNLTLDDVGKLVGVSAATISRWESGDIENMRSDKIVKLANALEISPAVILGW

-0.0699
0.0588
-0.787
-0.0179

----------
Exercise: for every item that follows, state its recorded soluble fraction (log2).
assayDetails: soluble fraction after stress (log2 fold change); higher = more stays soluble; pooled small domains, quantitative proteomics
conditionsUsed: stress: 75 degC

Past entries and their recorded results:
sequencechain=HMGGTFLVRILDPALNIRAQPSLTARINGVIRDKSVYTIVATSFEPKTQITWGKLKSGAGWISIGSKYVKK valuekind="soluble fraction (log2)" reading=-3.4
sequencechain=HMADGEWAEMQRQLTAAGLLVVGRAAQERIQRLSDISPLIEAAQRSNVVMLSERTVDEVLTLVPT valuekind="soluble fraction (log2)" reading=-0.225
sequencechain=HMSYSYIYNYALKVKMDISSTGGKKPYAYYYYDHSYKLAEEILSLSEETESIELQNKYDELKDFYENP valuekind="soluble fraction (log2)" reading=-1.79

Could you report soluble fraction (log2) for every entry in the following list?
1. HMSEQLVGTVGHITVGTARTASPAEAKFLDAFEQPHYLLVEPIEPKDIFQQGDKVVLVKKQHHSWLATRYI
2. HMQTPVTVGDTMPNLIGTPKRLLLELLNRTDITVKLTGDGYVTAQSPAAGTPIAKGMIIELSL
3. HMKKLTGVQKAAILMIALGPDISSSIIKRLPENMVERITYEIANMTKITAQQRNDILKEFMDMTVAQ
4. HMKVIAEESYRILVDAIEKLPPQMKSIMQLALEGKSNPEIAETLNISGETVHSQKKIAYRKLRVYLKD
5. HMRVDRSALDSIPGVGPGRKRTLLHHFGSARAVEASGLADLESIRGISKALARKIYDFFHPE
6. HMAEVDDESIKLYDGGYQSNTTKSRLNALLSEFGYDTEHVFQKQFEWFISIFDLTEKAMRTVPFSNGMRL
7. HMIGKLTSSKLAAIHKMKTNELLAHFTEKGFLNINDAGKYILTQQGKDVGAEFKTSQYGGYFLWPENIE
8. HMELSAQEIGRRLRIARENADIRQDDAAQVIGMSRPTLVSIEKGVRRVRIQEIQMLARHYGVSVNALLR

[-1.2, -2.17, -3.64, -2.36, -1.55, 0.0627, -0.666, -2.2]

Could you report soluble fraction (log2) for every entry in the following list?
1. HMFSLDMDRLVRPGFMASGNVTFSDGVTGKWALDQMGRLALETAQKGYQPSPADVQAFQRELQQQLQRQG
2. HMKSVQIPQSITVKEFSQAIEVSVADVIKKLMSMGVMVSQNKEINVDTAILVGEEFGVTVNVA
3. HMTDAEQHEALLFKQVVDGLPQTLRDTFVLSRHAGMTYAEISAHTGTPIKTVESRMAKALELIAQRMR

[0.0415, 0.609, -1.27]
